Listing: CB2 pEC50 of selected compounds
- Experimental Target: human CB2 (hCB2) receptor (Homo sapiens, UniProt P34972)
- Construct: expressed in transfected cells; host or cells: CHO-K1
- Sequence (P34972 whole entry): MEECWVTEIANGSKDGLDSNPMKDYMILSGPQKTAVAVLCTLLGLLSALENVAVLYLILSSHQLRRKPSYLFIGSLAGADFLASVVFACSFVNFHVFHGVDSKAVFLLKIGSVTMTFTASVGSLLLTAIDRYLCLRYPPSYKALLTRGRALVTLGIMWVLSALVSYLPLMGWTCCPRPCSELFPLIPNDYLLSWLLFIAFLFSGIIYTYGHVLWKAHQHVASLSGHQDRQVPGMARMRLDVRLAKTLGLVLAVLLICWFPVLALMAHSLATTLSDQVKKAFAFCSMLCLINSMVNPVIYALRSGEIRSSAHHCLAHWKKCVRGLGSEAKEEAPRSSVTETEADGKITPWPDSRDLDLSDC
- Protocol Summary: Inhibition of forskolin-activated cAMP production upon activation of human CB2 receptor (HTRF)
- Assay type: cell-based
- Measurement Context: CHO-K1 cells stably transfected with hCB2; 15 μM forskolin; pEC50=-log(EC50); relative to WIN55212-2
The answer should be a number; do not append a unit.

Bench note: what CB2 pEC50 did "COC(=O)N1CCC(Cn2c(C(C)(C)C)nc3cc(S(=O)(=O)CCCC(F)(F)F)ccc32)CC1.Cl" show?
7.77

Requested field: CB2 pEC50. Item: "CC(=O)N1CCC(Cn2c(C(C)(C)C)nc3cc(S(=O)(=O)CCCO)ccc32)CC1"
6.84

Which CB2 pEC50 reading was recorded for the compound "CC(C)(C)c1nc2cc(S(=O)(=O)CCCC(F)(F)F)ccc2n1CC1CCN(C=O)CC1" ?
8.62

What does the record list as CB2 pEC50 for "CC(C)(C)c1nc2cc(S(=O)(=O)CCCC(F)(F)F)ccc2n1CC1CCN(C(=O)C(F)(F)F)CC1.Cl" ?
7.64

So what does the record say about CB2 pEC50 for "CC(C)(C)c1nc2cc(S(=O)(=O)CC3CC3)ccc2n1CC1CCN(C=O)CC1" ?
8.66

---
// returns reported CB2 pEC50 for input "COCCS(=O)(=O)c1ccc2c(c1)nc(C(C)(C)C)n2CC1CCN(C(C)=O)CC1"
7.59

State the recorded CB2 pEC50 for this entry: "COCC(=O)N1CCC(Cn2c(C(C)(C)C)nc3cc(S(=O)(=O)CCCC(F)(F)F)ccc32)CC1"
5.80

For the compound "CCC(=O)N1CCC(Cn2c(C(C)(C)C)nc3cc(S(=O)(=O)CCCC(F)(F)F)ccc32)CC1.Cl" , what CB2 pEC50 is on record?
7.72

Could you share which CB2 pEC50 value was measured for "CC(=O)N1CCC(Cn2c(C(C)(C)C)nc3cc(S(=O)(=O)C4CCCC4)ccc32)CC1" ?
8.49
